Molecular target: full-length human GCN2 enzyme (Homo sapiens (Human), UniProt Q9P2K8)
Sequence (Q9P2K8 whole entry): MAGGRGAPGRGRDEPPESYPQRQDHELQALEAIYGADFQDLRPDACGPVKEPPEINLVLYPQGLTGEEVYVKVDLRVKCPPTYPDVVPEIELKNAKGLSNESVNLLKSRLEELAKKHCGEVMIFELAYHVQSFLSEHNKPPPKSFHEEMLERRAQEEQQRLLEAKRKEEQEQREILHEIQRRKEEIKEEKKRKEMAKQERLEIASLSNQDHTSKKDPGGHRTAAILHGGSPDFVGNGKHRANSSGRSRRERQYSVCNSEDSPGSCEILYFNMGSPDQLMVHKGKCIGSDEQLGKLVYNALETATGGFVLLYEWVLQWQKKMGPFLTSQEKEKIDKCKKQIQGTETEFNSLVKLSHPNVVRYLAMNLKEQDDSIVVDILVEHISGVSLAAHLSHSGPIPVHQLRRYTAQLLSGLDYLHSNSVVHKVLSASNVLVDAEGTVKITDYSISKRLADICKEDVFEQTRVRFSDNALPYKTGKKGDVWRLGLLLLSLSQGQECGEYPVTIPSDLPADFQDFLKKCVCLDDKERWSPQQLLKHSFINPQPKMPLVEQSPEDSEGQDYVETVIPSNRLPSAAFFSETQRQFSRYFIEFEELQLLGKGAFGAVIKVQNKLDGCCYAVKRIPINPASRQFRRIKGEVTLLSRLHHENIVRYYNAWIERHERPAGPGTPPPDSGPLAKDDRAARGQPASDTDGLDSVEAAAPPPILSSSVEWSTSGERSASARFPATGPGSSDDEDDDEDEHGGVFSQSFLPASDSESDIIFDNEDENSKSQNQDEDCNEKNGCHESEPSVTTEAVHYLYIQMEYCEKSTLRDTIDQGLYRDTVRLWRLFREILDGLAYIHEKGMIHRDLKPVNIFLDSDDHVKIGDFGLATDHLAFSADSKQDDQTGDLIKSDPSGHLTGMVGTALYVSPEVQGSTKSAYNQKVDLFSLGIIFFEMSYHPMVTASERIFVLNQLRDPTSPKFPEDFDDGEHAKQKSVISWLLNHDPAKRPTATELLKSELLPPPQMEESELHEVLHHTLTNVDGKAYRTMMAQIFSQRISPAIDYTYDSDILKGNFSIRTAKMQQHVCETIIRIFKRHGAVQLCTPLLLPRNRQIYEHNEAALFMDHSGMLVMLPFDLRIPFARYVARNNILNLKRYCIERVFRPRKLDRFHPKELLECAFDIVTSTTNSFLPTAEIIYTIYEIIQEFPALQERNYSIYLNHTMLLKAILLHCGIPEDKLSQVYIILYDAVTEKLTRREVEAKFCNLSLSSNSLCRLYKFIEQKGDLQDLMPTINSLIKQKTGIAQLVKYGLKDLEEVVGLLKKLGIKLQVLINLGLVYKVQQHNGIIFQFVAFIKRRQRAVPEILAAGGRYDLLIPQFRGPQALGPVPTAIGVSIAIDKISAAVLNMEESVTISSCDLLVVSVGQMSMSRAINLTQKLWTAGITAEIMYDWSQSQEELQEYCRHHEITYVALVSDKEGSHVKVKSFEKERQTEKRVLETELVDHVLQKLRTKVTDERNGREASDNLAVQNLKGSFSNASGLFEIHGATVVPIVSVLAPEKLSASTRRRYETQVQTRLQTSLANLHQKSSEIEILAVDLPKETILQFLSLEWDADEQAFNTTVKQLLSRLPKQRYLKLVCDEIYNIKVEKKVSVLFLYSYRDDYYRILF
Experiment: GCN2 enzyme inhibition, LanthaScreen TR-FRET Kinase Activity assay
Format: biochemical
Conditions: 10 μM ATP; mean of 1 to 3 replicate assays
Procedure: The inhibitory activity of the Example compounds towards GCN2 enzyme was measured according to the description below, using a LanthaScreen TR-FRET (Time Resolved Fluorescence Resonance Energy Transfer) Kinase Activity assay distributed by ThermoFisher Scientific. […] The mixture was applied by adding 15 μL to each well. The plate was then incubated at room temperature for 60 min while shaking at 450 rpm and then read using Tecan Spark reader using specific TR-FRET filters. […]
In this section we review reported log10 Ki values for a set of compounds.
RECORDED ENDPOINT: log10 Ki (log10 of the value in nM)

>>> assay_value("O=S(=O)(Nc1nccc(C#Cc2cnc3[nH]ncc3c2)c1F)c1ccc(Cl)cc1CO")
1.81
>>> assay_value("Cc1ncc(Cl)cc1S(=O)(=O)Nc1nccc(C#Cc2cnc3[nH]ncc3c2)c1F")
0.40
>>> assay_value("COc1cccc(S(=O)(=O)Nc2nccc(C#Cc3cnc4[nH]ncc4c3)c2F)c1F")
2.24
>>> assay_value("N#Cc1cccc(S(=O)(=O)Nc2nccc(C#Cc3cnc4[nH]ncc4c3)c2F)c1")
2.03
>>> assay_value("Cc1ccc(S(=O)(=O)Nc2nccc(C#Cc3cnc4[nH]ncc4c3)c2F)c(C)n1")
1.25
>>> assay_value("O=S(=O)(Nc1nccc(C#Cc2cnc3[nH]ncc3c2)c1F)c1cncc(Cl)c1")
2.10
>>> assay_value("Cc1ncc(F)cc1S(=O)(=O)Nc1nccc(C#Cc2cnc3[nH]ncc3c2)c1F")
0.62
>>> assay_value("Cc1cnc(C)c(S(=O)(=O)Nc2nccc(C#Cc3cnc4[nH]ncc4c3)c2F)c1")
0.91
>>> assay_value("COc1ncccc1S(=O)(=O)Nc1nccc(C#Cc2cnc3[nH]ncc3c2)c1F")
1.78

====

Molecular target: full-length human GCN2 enzyme (Homo sapiens (Human))
Experiment: GCN2 enzyme inhibition, LanthaScreen TR-FRET Kinase Activity assay
Assay type: biochemical
Conditions: 10 μM ATP; mean of 1 to 3 replicate assays
RECORDED ENDPOINT: Ki (nM)

>>> assay_value("COc1cccc(S(=O)(=O)Nc2nccc(C#Cc3cnc4[nH]ncc4c3)c2F)c1")
128
>>> assay_value("CCOc1ncc(Cl)cc1S(=O)(=O)Nc1nccc(C#Cc2cnc3[nH]ncc3c2)c1F")
8.83
>>> assay_value("O=S(=O)(Nc1nccc(C#Cc2cnc3[nH]ncc3c2)c1F)c1cccc2c1OCO2")
209
>>> assay_value("COc1ncc(C(F)(F)F)cc1S(=O)(=O)Nc1nccc(C#Cc2cnc3[nH]ncc3c2)c1F")
5.78
>>> assay_value("Cc1nc(C)c(S(=O)(=O)Nc2nccc(C#Cc3cnc4[nH]ncc4c3)c2F)s1")
29.3
>>> assay_value("O=S(=O)(Nc1nccc(C#Cc2cnc3[nH]ncc3c2)c1F)c1cc(Cl)cnc1CCO")
67
>>> assay_value("COc1ncc(C)cc1S(=O)(=O)Nc1nccc(C#Cc2cnc3[nH]ncc3c2)c1F")
6.6
>>> assay_value("COc1ncc(C#N)cc1S(=O)(=O)Nc1nccc(C#Cc2cnc3[nH]ncc3c2)c1F")
7.76
